# EXPERIMENTAL_TARGET: cGAS (Homo sapiens)
# Sequence (Q8N884 whole entry): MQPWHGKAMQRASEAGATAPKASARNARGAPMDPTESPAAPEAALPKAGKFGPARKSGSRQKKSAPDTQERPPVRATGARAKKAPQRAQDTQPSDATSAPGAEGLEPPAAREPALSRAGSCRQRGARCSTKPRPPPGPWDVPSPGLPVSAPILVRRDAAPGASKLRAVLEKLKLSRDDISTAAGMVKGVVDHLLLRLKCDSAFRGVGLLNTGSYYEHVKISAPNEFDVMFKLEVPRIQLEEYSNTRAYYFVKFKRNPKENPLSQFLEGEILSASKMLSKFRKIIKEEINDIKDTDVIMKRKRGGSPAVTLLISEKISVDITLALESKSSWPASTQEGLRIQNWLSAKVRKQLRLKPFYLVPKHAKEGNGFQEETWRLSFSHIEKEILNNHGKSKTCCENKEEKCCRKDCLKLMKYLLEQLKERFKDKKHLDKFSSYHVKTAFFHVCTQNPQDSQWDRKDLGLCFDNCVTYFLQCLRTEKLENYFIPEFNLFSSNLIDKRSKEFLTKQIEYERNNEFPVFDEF
# METHOD_NOTES: ISD70-driven IP-10 (and IFN-β) production in THP-1 cells, ELISA
# Format: cell-based
# Design: endogenous in cells; host or cells: THP-1 (undifferentiated)
# STUDY_CONDITIONS: THP-1; 100 nM ASO overnight, then ISD70 2.5 μg/ml 7-8 h; percentage of ISD70 only
In the oligonucleotide strings, read from the 5' end, every base follows the letter of its sugar. An asterisk marks phosphorothioate; unmarked linkages are phosphodiester. Other units and linkages are bracketed, terminal groups are in braces. A string of capitals states the bases alone. d = 2'-deoxy (DNA); m = 2'-O-methyl
REPORTED_ENDPOINT: cGAS-100 nM: averaged IP-10 levels relative to ISD70

SUBSTANCE	RECORDED_MEASUREMENT
mA*mA*mA*mA*mU*A*A*G*G*G*G*A*A*T*A*mG*mG*mG*mG*mA (mA*mA*mA*mA*mU*dA*dA*dG*dG*dG*dG*dA*dA*dT*dA*mG*mG*mG*mG*mA; antisense) [[CDKN2B-AS1]79]	94.10%
mA*mA*mA*mU*mG*T*C*C*T*G*G*C*C*C*T*mC*mA*mC*mU*mG (mA*mA*mA*mU*mG*dT*dC*dC*dT*dG*dG*dC*dC*dC*dT*mC*mA*mC*mU*mG) [[LINC-PINT]148.1]	66.46%
mA*mG*mC*mA*mG*T*C*T*C*C*A*T*G*T*C*mC*mC*mA*mG*mG (AGCAGTCTCCATGTCCCAGG; antisense; sugars from the 5' end m5 d10 m5, all phosphorothioate, methylation of C not given here) [[CDKN2B-AS1]2235]	28.75%
mC*mC*mU*mA*mG*A*A*A*G*A*A*G*C*A*A*mA*mG*mA*mU*mU (mC*mC*mU*mA*mG*dA*dA*dA*dG*dA*dA*dG*dC*dA*dA*mA*mG*mA*mU*mU) [[CDKN2B-AS1]1522]	60.90%
mA*mG*mG*mC*mC*T*C*C*A*G*T*G*T*C*T*mU*mC*mU*mC*mC (mA*mG*mG*mC*mC*dT*dC*dC*dA*dG*dT*dG*dT*dC*dT*mU*mC*mU*mC*mC; antisense) [[CDKN2B-AS1]2218]	62.85%
mG*mC*mA*mG*mU*C*T*C*C*A*T*G*T*C*C*mC*mA*mG*mG*mC (GCAGUCTCCATGTCCCAGGC; antisense; sugars from the 5' end m5 d10 m5, all phosphorothioate, methylation of C not given here) [[CDKN2B-AS1]2234]	10.02%
mG*mU*mC*mA*mA*A*C*C*T*A*G*A*A*A*G*mA*mA*mG*mC*mA (mG*mU*mC*mA*mA*dA*dC*dC*dT*dA*dG*dA*dA*dA*dG*mA*mA*mG*mC*mA; antisense) [[CDKN2B-AS1]1528]	68.94%
mU*mG*mA*mU*mG*A*T*G*C*T*T*G*C*A*G*mG*mA*mG*mG*mC (mU*mG*mA*mU*mG*dA*dT*dG*dC*dT*dT*dG*dC*dA*dG*mG*mA*mG*mG*mC) [[LINC-PINT|283.1]	85.85%
mU*mU*mC*mU*mC*T*C*T*G*G*T*C*C*C*A*mU*mC*mC*mC*mU (mU*mU*mC*mU*mC*dT*dC*dT*dG*dG*dT*dC*dC*dC*dA*mU*mC*mC*mC*mU; antisense) [[LINC-PINT]111]	77.41%

----------
Entries annotated with measured TLR8 100 nM
# EXPERIMENTAL_TARGET: TLR8 (Homo sapiens, UniProt Q9NR97)
# METHOD_NOTES: HEK-TLR8 NF-κB-luciferase reporter, R848 or Motolimod stimulation (potentiation or inhibition)
# Assay type: cell-based
# Set-up: expressed in transfected cells; host or cells: 293XLhTLR8 (HEK293)
# STUDY_CONDITIONS: MOE-modified ASO at 100 nM; averaged NF-κB-Luciferase relative to R848 condition (fold increase)
# Method: In such examples, potentiation of TLR8 activity can be identified by observation of an overall increased TLR8 response of the cell population, or a higher proportion of cells having TLR8-positive activity as compared to a negative control condition in which cells are treated with TLR8 agonist in the absence of the oligonucleotide (or in the presence of an appropriate control non-potentiating agent). […] TLR8 activity can also be analysed by measuring cytokine levels, for example by ELISA. […]
REPORTED_ENDPOINT: TLR8 100 nM

In [3]: df
Out[3]:
                           monomer_sequence  recorded_measurement
0  GGTGGTGGCCACCCATCTCA (antisense; 2'-MOE modified, pattern not given here) [CTNN2B-2479 MOE]                 1.491
1  TTGCACACTTCGTACCCAAA (antisense; 2'-MOE modified, pattern not given here) [CAMSAP1-4915 MOE]                 1.555
2  TCCGGCCTCGGAAGCTCTCT (antisense; 2'-MOE modified, pattern not given here) [MB21D1-168 MOE]                 0.816
3  TGGCAGGCTCAGTGATGTCT (antisense; 2'-MOE modified, pattern not given here) [CTNN2B-1642 MOE]                 1.074

----------
# EXPERIMENTAL_TARGET: human TLR9 (Homo sapiens, UniProt Q9NR96)
# Construct: HA; host or cells: 293XL-hTLR9-HA (HEK293)
# Sequence (Q9NR96 26-1032): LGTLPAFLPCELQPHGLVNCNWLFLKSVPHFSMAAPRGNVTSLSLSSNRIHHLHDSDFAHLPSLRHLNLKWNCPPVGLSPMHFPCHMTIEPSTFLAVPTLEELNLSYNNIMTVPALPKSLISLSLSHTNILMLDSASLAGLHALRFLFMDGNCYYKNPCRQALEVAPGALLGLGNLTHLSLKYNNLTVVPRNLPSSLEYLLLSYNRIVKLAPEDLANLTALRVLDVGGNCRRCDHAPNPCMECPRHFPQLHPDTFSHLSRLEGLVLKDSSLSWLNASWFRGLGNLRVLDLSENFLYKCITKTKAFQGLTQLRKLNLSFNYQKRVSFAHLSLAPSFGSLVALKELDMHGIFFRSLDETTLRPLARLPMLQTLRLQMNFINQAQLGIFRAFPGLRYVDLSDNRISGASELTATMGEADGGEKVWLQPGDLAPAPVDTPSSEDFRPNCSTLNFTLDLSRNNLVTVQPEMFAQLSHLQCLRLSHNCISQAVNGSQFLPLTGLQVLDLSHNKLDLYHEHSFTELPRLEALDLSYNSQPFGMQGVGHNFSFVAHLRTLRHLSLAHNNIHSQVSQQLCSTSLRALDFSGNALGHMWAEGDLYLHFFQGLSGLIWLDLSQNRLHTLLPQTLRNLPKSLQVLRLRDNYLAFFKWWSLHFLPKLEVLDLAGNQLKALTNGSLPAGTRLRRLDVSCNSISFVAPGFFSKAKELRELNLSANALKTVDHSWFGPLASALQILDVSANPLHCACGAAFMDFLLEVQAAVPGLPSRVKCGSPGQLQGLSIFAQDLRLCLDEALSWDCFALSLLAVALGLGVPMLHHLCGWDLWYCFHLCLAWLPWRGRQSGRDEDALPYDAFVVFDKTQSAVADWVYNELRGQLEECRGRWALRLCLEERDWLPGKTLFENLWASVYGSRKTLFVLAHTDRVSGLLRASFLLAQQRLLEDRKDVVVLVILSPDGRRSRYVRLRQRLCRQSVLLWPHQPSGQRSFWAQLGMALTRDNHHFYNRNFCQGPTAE
# METHOD_NOTES: HEK-TLR9 NF-κB-luciferase reporter, ODN2006 stimulation
# Type: cell-based
# STUDY_CONDITIONS: ASO 500 nM; relative to ODN2006 only, given as fraction
Entries annotated with measured TLR9 500 nM (averaged NF-κB-Luciferase level relative to ODN2006 condition)
REPORTED_ENDPOINT: TLR9 500 nM (averaged NF-κB-Luciferase level relative to ODN2006 condition)

>>> print(df.to_string())
                           monomer_sequence  recorded_measurement
0  TCGTGGGGTCCTTTTC (antisense; LNA-modified, pattern not given here) [HPRT LNA-660 V1]                 0.462
1  CTTCGTGGGGTCCTTT (antisense; LNA-modified, pattern not given here) [HPRT LNA-662 V1]                 0.240
2  GGTCTTGGCTTCGTGG (antisense; LNA-modified, pattern not given here) [MB21D1-523 LNA V1]                 0.417
3  AGCTTCGAGGCCCCAG (antisense; LNA-modified, pattern not given here) [MB21D1-616 LNA V1]                 0.085
4  CCACTTGGCAGACCAT (antisense; LNA-modified, pattern not given here) [CTNN2B-1575 LNA V1]                 0.111
5  ATGGCCTCCCATCTCC (antisense; LNA-modified, pattern not given here) [HPRT LNA-330 V1]                 0.244
6  TGACAAAGATTCACTG (antisense; LNA-modified, pattern not given here) [HPRT LNA-1353 KL]                 0.574

----------
Entries annotated with measured TLR8 100 nM
# EXPERIMENTAL_TARGET: TLR8 (Homo sapiens, UniProt Q9NR97)
# Sequence (Q9NR97 27-1041): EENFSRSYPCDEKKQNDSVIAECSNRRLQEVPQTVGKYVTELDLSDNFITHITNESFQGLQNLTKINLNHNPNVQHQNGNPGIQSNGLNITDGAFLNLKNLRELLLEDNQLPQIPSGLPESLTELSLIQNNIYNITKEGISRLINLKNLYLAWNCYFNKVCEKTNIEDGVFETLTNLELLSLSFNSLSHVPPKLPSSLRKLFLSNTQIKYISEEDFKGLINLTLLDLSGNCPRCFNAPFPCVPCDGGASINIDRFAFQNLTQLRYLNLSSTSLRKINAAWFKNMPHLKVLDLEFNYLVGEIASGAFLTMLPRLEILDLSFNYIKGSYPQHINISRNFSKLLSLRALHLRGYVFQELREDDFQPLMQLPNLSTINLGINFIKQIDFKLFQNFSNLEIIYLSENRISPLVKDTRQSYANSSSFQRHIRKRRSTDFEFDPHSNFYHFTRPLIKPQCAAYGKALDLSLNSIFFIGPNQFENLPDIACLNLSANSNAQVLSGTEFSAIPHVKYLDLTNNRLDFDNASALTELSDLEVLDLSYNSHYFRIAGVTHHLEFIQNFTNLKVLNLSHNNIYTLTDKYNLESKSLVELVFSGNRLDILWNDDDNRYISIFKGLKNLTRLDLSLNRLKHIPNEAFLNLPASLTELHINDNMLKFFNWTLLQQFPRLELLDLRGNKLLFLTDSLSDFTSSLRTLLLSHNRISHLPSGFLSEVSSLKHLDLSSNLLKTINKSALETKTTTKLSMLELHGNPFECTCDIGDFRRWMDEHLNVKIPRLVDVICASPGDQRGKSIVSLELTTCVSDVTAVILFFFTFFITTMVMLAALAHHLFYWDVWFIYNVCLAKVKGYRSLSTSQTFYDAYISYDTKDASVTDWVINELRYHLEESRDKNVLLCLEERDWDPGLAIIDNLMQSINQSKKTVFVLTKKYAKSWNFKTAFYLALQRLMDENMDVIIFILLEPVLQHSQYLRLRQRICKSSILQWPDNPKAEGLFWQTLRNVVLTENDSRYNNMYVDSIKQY
# METHOD_NOTES: HEK-TLR8 NF-κB-luciferase reporter, R848 or Motolimod stimulation (potentiation or inhibition)
# Assay type: cell-based
# Set-up: expressed in transfected cells; host or cells: 293XLhTLR8 (HEK293)
# STUDY_CONDITIONS: MOE-modified ASO at 100 nM; averaged NF-κB-Luciferase relative to R848 condition (fold increase)
REPORTED_ENDPOINT: TLR8 100 nM

In [3]: df
Out[3]:
                           monomer_sequence  recorded_measurement
0  AGGTCTTGGCTTCGTGGAGC (antisense; 2'-MOE modified, pattern not given here) [MB21D1-522 MOE]                 3.657
1  CAGATAGCACCTTCAGCACT (antisense; 2'-MOE modified, pattern not given here) [CTNN2B-1294 MOE]                 1.773
2  GGTGTCCTTGCACGTGGCTT (antisense; 2'-MOE modified, pattern not given here) [EGFR-1016 MOE]                 1.532
3  CGTGTCTGGAAGCTTCCTTT (antisense; 2'-MOE modified, pattern not given here) [CTNN2B-808 MOE]                 1.476
4  GCGACTATACGCGCAATATG (antisense; 2'-MOE modified, pattern not given here) [NC5 2′MOE]                 1.067
5  CTGTGATCTTGACATGCTGC (antisense; 2'-MOE modified, pattern not given here) [EGFR-2790 MOE]                 1.308
6  TAGTCAAGGGCATATCCTAC (antisense; 2'-MOE modified, pattern not given here) [HPRT-732 MOE]                 1.457
